measuredOn: PD-1/PD-L1 protein/protein interaction (Homo sapiens (Human), UniProt Q9NZQ7)
Sequence (Q9NZQ7 19-238): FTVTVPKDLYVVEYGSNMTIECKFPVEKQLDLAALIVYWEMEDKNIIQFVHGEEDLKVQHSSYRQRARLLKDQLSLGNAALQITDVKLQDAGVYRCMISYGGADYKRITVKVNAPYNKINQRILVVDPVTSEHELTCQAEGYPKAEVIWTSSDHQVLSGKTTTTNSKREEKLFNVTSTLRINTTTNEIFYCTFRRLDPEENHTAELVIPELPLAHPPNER
assayComment: PD-1/PD-L1 Homogeneous Time-Resolved Fluorescence (HTRF) Binding Assay
testParameters: recombinant human PD-L1 (19-238) His-tag and human PD-1 (25-167) Fc tag; PBS pH 7.4
pIC50: −log10 of the molar value.
endpoint: pIC50

Some solved entries appear below for comparison.
compound: Cc1c(Nc2ncnc3cc(CN4CCCCC4C(=O)O)cnc23)cccc1-c1ccccc1 (centres unmarked)
pIC50: 7.00 to 8.00

compound: N#Cc1c(Nc2nccc3cc(CNCCO)cnc23)cccc1-c1ccc2c(c1)OCCO2
pIC50: ≥ 8.00

Look at this compound and give its reported pIC50. `Cc1c(Nc2nccc3nc(CN4CCCC[C@H]4C(=O)O)cnc23)cccc1-c1ccccc1`
7.00 to 8.00

Look at this compound and give its reported pIC50. `COc1c(CNCCO)cnc2c(Nc3cccc(-c4ccccc4)c3C)nccc12`
≥ 8.00

Look at this compound and give its reported pIC50. `Cc1c(Nc2nccc3c(CNCCO)ccnc23)cccc1-c1ccc2c(c1)OCCO2`
≥ 8.00

###

measuredOn: PD-1/PD-L1 protein/protein interaction (Homo sapiens (Human), UniProt Q9NZQ7)
assayComment: PD-1/PD-L1 Homogeneous Time-Resolved Fluorescence (HTRF) Binding Assay
testParameters: recombinant human PD-L1 (19-238) His-tag and human PD-1 (25-167) Fc tag; PBS pH 7.4
pIC50: −log10 of the molar value.
endpoint: pIC50

molecule: N#Cc1c(Nc2nccc3cc(CNCCO)cnc23)cccc1C1=CCCCC1
pIC50: ≥ 8.00
--
molecule: Cc1c(Nc2cccc3c(CNCCO)ccnc23)cccc1-c1ccccc1
pIC50: 7.00 to 8.00

Let us move to another entry and its pIC50.
Look at this molecule and give its reported pIC50. Cc1c(Nc2nccc3c(Cl)c(CN4CCCCC4C(=O)O)cnc23)cccc1-c1ccccc1 (stereo not drawn)
7.00 to 8.00
